pKd overview
assayed-target: T1, mouse transferrin receptor (mTfR) fused to EGFP, on CHO cells (mouse, UniProt Q62351 1-763)
T1 construct: whole, on cells; also called mouse TfR; CHO-mTfR-EGFP; not shown: EGFP
T1 sequence (Q62351 whole entry, the tested form may be a part): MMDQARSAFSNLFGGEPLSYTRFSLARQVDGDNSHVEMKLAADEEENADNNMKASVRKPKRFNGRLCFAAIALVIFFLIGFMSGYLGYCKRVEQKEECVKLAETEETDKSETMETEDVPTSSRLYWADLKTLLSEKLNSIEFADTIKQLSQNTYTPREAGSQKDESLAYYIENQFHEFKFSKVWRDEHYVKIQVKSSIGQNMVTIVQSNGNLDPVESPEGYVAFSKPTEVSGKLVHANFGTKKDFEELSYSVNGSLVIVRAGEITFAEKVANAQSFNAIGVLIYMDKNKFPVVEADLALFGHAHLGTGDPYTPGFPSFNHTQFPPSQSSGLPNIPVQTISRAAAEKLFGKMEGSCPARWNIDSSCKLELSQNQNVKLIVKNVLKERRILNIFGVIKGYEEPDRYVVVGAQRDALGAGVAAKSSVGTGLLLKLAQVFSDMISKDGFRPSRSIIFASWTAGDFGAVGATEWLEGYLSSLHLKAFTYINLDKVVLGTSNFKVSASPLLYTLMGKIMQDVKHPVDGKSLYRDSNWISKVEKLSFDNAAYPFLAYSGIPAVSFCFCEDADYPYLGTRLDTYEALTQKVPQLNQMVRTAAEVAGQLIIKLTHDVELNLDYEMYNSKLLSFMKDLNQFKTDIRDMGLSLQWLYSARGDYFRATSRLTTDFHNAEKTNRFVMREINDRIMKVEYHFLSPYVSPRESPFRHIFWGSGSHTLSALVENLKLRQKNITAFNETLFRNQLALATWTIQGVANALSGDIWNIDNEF
experiment-description: apparent Kd, flow cytometry, CHO cells
Reminder that pKd is minus the log10 of a molar concentration.

Recorded results for 3 binders are shown here.
- binder: "C5^V16h20 (VHH) VHH: EVQLVESGGGVVQPGGSLRLSCAASGTDFSINFIRWYRQAPGKGLEFVAGFTATGNTNYADSVKGRFTISRDNAKNAVYLQMNSLRPEDTAVYYCYILDKWGQGTQVTVSS"
  pKd: 6.21
- binder: "B8^h1 (VHH) VHH: EVQLVESGGGVVQPGGSLRLSCAASGEIFSINFMRWYRQAPGKGLEWVAGFTRDGSTNYPDSVKGRFTISRDNAKNTVYLQMNSLRPEDTAVYYCYMLDTWGQGTQVTVSS"
  pKd: 8.55
- binder: "B8^V18 (VHH) VHH: EVQLVESGGGVVQPGGSLRLSCAASGEIHSINFMRWYRQAPGKQREWVAGFTRDGSTNYPDSAKGRFTISRDNAKNTVYLQIDSLKPEDTAVYYCYMLDTWGQGTQVTVSS"
  pKd: 7.37

## Input Annotate the binder VHH A10 (C5^V10) (VHH) VHH: EVQLVESGGGVVQPGGSLKLSCVASGTDFSLNFIRWYRQAPGKQREFVAGFTATGNTNYADSMKGRFTISRDNTKNAVYLQIDSLKPEDTAVYYCYMLDKWGQGTQVTVSS with its measured pKd.
## Output 6.80

## Input Tell me its pKd given C5^h9 (VHH) VHH: EVQLVESGGGVVQPGGSLRLSCAASGTDFSINFIRWYRQAPGKGLEFVAGFTATGNTNYADSVKGRFTISRDNAKNTLYLQMNSLRPEDTAVYYCYMLDKWGQGTQVTVSS as the entry.
## Output 6.37

## Input Quickly give me recorded pKd for VHH A8 (C5^V8) (VHH) VHH: EVQLVESGGGVVQPGGSLKLSCVASGTDFSINFIRWYRQAPGKQREFVAGFTATGNTNYADSMKGRFTISRDNTKNAVYLQIDSLKPEDTAVYYCYMLAKWGQGTQVTVSS
## Output 6.37

## Input Give me measured pKd, please, for this binder: B8^V17 (VHH) VHH: EVQLVESGGGVVQPGGSLRLSCAASGEIFSINFMRWYRQAPGKQREFVAGFTRDGSTNYPDSAKGRFTISRDNAKNTVYLQIDSLKPEDTAVYYCYMLDTWGQGTQVTVSS
## Output 8.28

## Input Identify pKd associated with the binder B8^V1 (VHH) VHH: EVQLVESGGGVVQPGGSLRLSCAADGEIFSINFMRWYRQAPGKQREWVAGFTRDGSTNYPDSAKGRFTISRDNAKNTVYLQIDSLKPEDTAVYYCYMLDTWGQGTQVTVSS
## Output 6.50

## Input Output measured pKd for this item: C5^h17 (VHH) VHH: EVQLVESGGGVVQPGGSLKLSCVASGTDFSINFIRWVRQAPGKGLEFVAGFTATGNTNYADSMKGRFTISRDNTKNALYLQIDSLRPEDTAVYYCYMLDKWGQGTQVTVSS
## Output 6.05

## Input Given C5^h14 (VHH) VHH: EVQLVESGGGVVQPGGSLRLSCAASGTDFSINFIRWVRQAPGKGLEWVAGFTATGNTNYADSVKGRFTISRDNTKNALYLQMNSLRPEDTAVYYCYMLDKWGQGTQVTVSS , respond with its pKd.
## Output 6.79

## Input Quickly give me recorded pKd for C5^h12 (VHH) VHH: EVQLVESGGGVVQPGGSLRLSCAASGTDFSINFIRWYRQAPGKGLEFVAGFTATGNTNYADSVKGRFTISRDNAKNTLYLQIDSLRPEDTAVYYCYMLDKWGQGTQVTVSS
## Output 6.48

## Input State, in one line, measured pKd of B8^V14 (VHH) VHH: EVQLVESGGGVVQPGGSLRLSCAASGEIFSINFMRWYRQAPGKQREWVAGFTRLGSTNYPDSAKGRFTISRDNAKNTVYLQIDSLKPEDTAVYYCYMLDTWGQGTQVTVSS
## Output 7.39

## Input Give me measured pKd, please, for this binder: C5^V13h20 (VHH) VHH: EVQLVESGGGVVQPGGSLRLSCAASGTDFSINFIRWYRQAPGKGLEFVAGFSATGNTNYADSVKGRFTISRDNAKNAVYLQMNSLRPEDTAVYYCYMLDKWGQGTQVTVSS
## Output 6.61

## Input Give the reported pKd for this binder. VHH A3 (C5^V3) (VHH) VHH: EVQLVESGGGVVQPGGSLKLSCVASGTDFSINFIRWYRQAPGKQREFVAGFTAAGNTNYADSMKGRFTISRDNTKNAVYLQIDSLKPEDTAVYYCYMLDKWGQGTQVTVSS
## Output 6.86

## Input Look up pKd of B8^V15 (VHH) VHH: EVQLVESGGGVVQPGGSLRLSCAASGEIFSINFMRWYRQAPGKQREWVAGFTRDDSTNYPDSAKGRFTISRDNAKNTVYLQIDSLKPEDTAVYYCYMLDTWGQGTQVTVSS and report it.
## Output 6.16

## Input Quickly give me recorded pKd for C5^V31 (VHH) VHH: EVQLVESGGGVVQPGGSLKLSCVASGTDRSINFIRWYRQAPGKQREFVAGFTATGNTNYADSMKGRFTISRDNTKNAVYLQIDSLKPEDTAVYYCYMLDKWGQGTQVTVSS
## Output 6.35
